System: HBV
Experiment: anti-HBV activity in stable transfected HepG2.2.15 cell line, HBV DNA from secreted virions by realtime PCR
Assay type: cell-based, Hepatitis B virus
Settings: Hepatitis B virus, HepG2.2.15, 144 h, HepG2.2.15 cells, 6 days of treatment, secreted virion HBV DNA; read-out: HBV-HepG2 2.15 EC50
Provide the recorded EC50 for the entries that follow.
Answers are plain numbers, in µM.

COC(=O)C1=C(CN2CCOCC2)NC(c2ccccn2)=NC12CCOc1ccccc12 (stereo not drawn) :: 8.64

Provide EC50 for all items below, preserving their order.
1. COC(=O)C1=C(CN2CCOCC2)NC(c2ccccn2)=NC12c1ccc(F)cc1C(F)C2(F)F (single isomer, unassigned) [Compound 168A]
2. COC(=O)C1=C(C)NC(c2ncc(F)cc2F)=NC1(C)c1ccc(F)cc1 (stereo not drawn)
3. COC(=O)C1=C(CN2CCOCC2)NC(c2ccccn2)=NC12c1ccccc1OC2(F)F (stereo not drawn)
4. N#CC1=C(CN2CCOCC2)NC(c2ccccn2)=NC12CCc1ccccc12 (stereo not drawn)

*A*
1. 9.64
2. 9.1
3. 13
4. 8.48

Please fill in: EC50 reported for CCOC(=O)C1=C(C)NC(c2nccs2)=NC1(C)c1ccc(F)c(Cl)c1 (stereo not drawn) = 12.7

---

Provide the recorded CC50 at 6 days for the entries that follow.
Assay: Cytotoxicity in HepG2 cells using CellTiter-Blue, same incubation period as HepG2.2.15 assay
Type: cell-based
Conditions: human, HepG2 cells, 6 days, CellTiter-Blue; read-out: HepG2 6 days CC50

Check out these entries, answers already filled in.
COC(=O)C1=C(C)NC(c2ccccn2)=NC1(C)c1cccc(F)c1 (stereo not shown) :: > 100 µM
CCOC(=O)C1=C(CN2CCOCC2)NC(c2ccccn2)=NC1(C)c1ccc(F)cc1Cl (stereo not shown) :: > 50 µM
COC(=O)C1=C(CN2CCOCC2)NC(c2ccccn2)=NC1(C)c1cccc(F)c1 (stereo not shown) :: > 100 µM

Now take the following compound into account.
Please fill in: CC50 at 6 days reported for COC(=O)C1=C(CN2CCOCC2)NC(c2ccccn2)=NC1(C)c1ccc(F)cc1 (stereo not shown) = > 100 µM

---

Test: Cytotoxicity in HepG2 cells using CellTiter-Blue, same incubation period as HepG2.2.15 assay
Assay type: cell-based
Settings: human, HepG2 cells, 6 days, CellTiter-Blue; read-out: HepG2 6 days CC50
QUANTITY_MEASURED: CC50 at 6 days

N#CC1=C(CN2CCOCC2)NC(c2ccccn2)=NC12CCCc1ccc(F)cc12 (centres unmarked) :: > 100 µM
CCOC(=O)C1=C(C(F)(F)C(F)(F)F)NC(c2ccccn2)=NC1(C)c1ccc(F)cc1 (centres unmarked) :: > 100 µM

Provide CC50 at 6 days for all items below, preserving their order.
1. COC(=O)C1=C(CN2CCOCC2)NC(c2ccccn2)=NC1(C)c1ccccc1Cl (centres unmarked)
2. CCOC(=O)C1=C(C(F)(F)F)NC(c2ccccn2)=NC1(C)c1ccc(F)cc1 (centres unmarked)
3. N#CC1=C(CN2CCOCC2)NC(c2ccccn2)=NC12CCc1ccccc12 (centres unmarked)

*A*
["> 100 µM", "> 10 µM", "> 100 µM"]

---

Test: Cytotoxicity in HepG2 cells incubated 4 days, Resazurin assay
Settings: human, HepG2 4 days CC50, HepG2 cells
QUANTITY_MEASURED: CC50 at 4 days

N#CC1=C(CN2CCOCC2)NC(c2ccccn2)=NC12CCCc1cc(F)ccc12 (racemic) [Compound 60] :: > 25 µM

Provide CC50 at 4 days for all items below, preserving their order.
1. CCOC(=O)C1=C(C)NC(c2ccccn2)=NC1(C)c1ccc(F)c(Cl)c1 (stereo not shown)
2. COC(=O)C1=C(C)NC(c2ncc(F)cc2F)=NC1(C)c1ccc(C)c(F)c1 (stereo not shown)
3. CCOC(=O)C1=C(C(F)(F)F)NC(c2ccccn2)=NC1(C)c1ccc(F)cc1 (stereo not shown)
4. COC(=O)C1=C(CN2CCOCC2)NC(c2ccccn2)=NC1(C)c1cc(F)cc(Cl)c1 (stereo not shown)

*A*
1: > 25 µM; 2: > 25 µM; 3: > 10 µM; 4: > 25 µM

---

Provide the recorded CC50 at 4 days for the entries that follow.
Assay: Cytotoxicity in HepG2 cells incubated 4 days, Resazurin assay
Settings: human, HepG2 4 days CC50, HepG2 cells

COC(=O)C1=C(C)NC(c2ncc(F)cc2F)=NC1(C)c1ccc(F)c(F)c1 (centres unmarked) [Compound 132b] :: > 25 µM
CCOC(=O)C1=C(CN2CCOCC2)NC(c2ccccn2)=NC1(C)c1ccc(F)c(Cl)c1 (centres unmarked) :: > 50 µM

Provide CC50 at 4 days for all items below, preserving their order.
1. COC(=O)C1=C(C)NC(c2ncc(F)cc2C)=NC1(C)c1ccc(F)c(F)c1 (centres unmarked)
2. COC(=O)C1=C(C#N)NC(c2ncc(F)cc2F)=NC1(C)c1ccc(F)c(F)c1 (single isomer, unassigned) [Compound 163a]
3. N#CC1=C(CN2CCOCC2)NC(c2ccccn2)=NC12CCCc1cc(F)ccc12 (single isomer, unassigned) [Compound 60a]

*A*
["> 25 µM", "> 25 µM", "> 100 µM"]
